Tested on: A549 lung carcinoma cells
Test: Resazurin antiproliferative microtiter assay, A549
Type: cell-based, human
Settings: read-out: IC50, μM (± SEM), A549, 48 h drug exposure
MEASURED ATTRIBUTE: IC50 (µM)
Kindly answer with a numeric value in µM, unit omitted.

Query: # value lookup — system A549 lung carcinoma cells, readout IC50, item N.N.[Cl][Pt][Cl] [Cisplatin]
Result: 19
